Measured IC50 by item
Biological target: human KCNK13 (Homo sapiens)
Construct: expressed in transfected cells
Experiment: KCNK13 antagonist activity, thallium (Tl+) flux FLIPR assay
Assay type: cell-based
Conditions: HEK 293 cells stably expressing human KCNK13; Tl+ sensitive dye, FLIPR; compounds 15 minutes prior to thallium sulfate; 10 point half log curves from 10 PM; read-out: hKCNK13 IC50
quantity_kind: IC50

| compound | tgt | quantity_kind | test_value |
| --- | --- | --- | --- |
| Cc1nonc1-c1nc2ccccc2n1Cc1cc[n+]([O-])cc1 [Example 77] | human KCNK13 (Homo sapiens) | IC50 | < 1000 nM |
| Nc1nonc1-c1nc2ccc(F)c(F)c2n1Cc1cccnn1 (single isomer, unassigned) [Example 162] | human KCNK13 (Homo sapiens) | IC50 | < 50 nM |
| CNc1cccc2nc(-c3nonc3C)n(Cc3cccnc3)c12 [Example 81] | human KCNK13 (Homo sapiens) | IC50 | < 1000 nM |
| Nc1nonc1-c1nc2cc(F)ccc2n1Cc1ccncc1 [Example 92] | human KCNK13 (Homo sapiens) | IC50 | < 50 nM |
| Nc1nonc1-c1nc2cccc(F)c2n1Cc1ccc(Cl)nn1 (single isomer, unassigned) [Example 148] | human KCNK13 (Homo sapiens) | IC50 | < 50 nM |
| Cc1nonc1-c1nc2c(F)ccc(F)c2n1Cc1cnc(C#N)nc1 [Example 83] | human KCNK13 (Homo sapiens) | IC50 | < 200 nM |
| N#Cc1nsnc1-c1nc2ccccc2n1Cc1cccnc1 [Example 99] | human KCNK13 (Homo sapiens) | IC50 | < 100 nM |
| Nc1nonc1-c1nc2cccc(F)c2n1Cc1cccnn1 [Example 6] | human KCNK13 (Homo sapiens) | IC50 | < 100 nM |
| Cc1nonc1-c1nc2cccc(F)c2n1Cc1ccc(Cl)nc1 [Example 38] | human KCNK13 (Homo sapiens) | IC50 | < 50 nM |
| Cc1nsnc1-c1nc2c(F)cccc2n1Cc1cccnn1 [Example 140] | human KCNK13 (Homo sapiens) | IC50 | < 500 nM |

====

Target: human KCNK13 (Homo sapiens, UniProt Q9HB14)
Construct: expressed in transfected cells
Sequence (Q9HB14 whole entry): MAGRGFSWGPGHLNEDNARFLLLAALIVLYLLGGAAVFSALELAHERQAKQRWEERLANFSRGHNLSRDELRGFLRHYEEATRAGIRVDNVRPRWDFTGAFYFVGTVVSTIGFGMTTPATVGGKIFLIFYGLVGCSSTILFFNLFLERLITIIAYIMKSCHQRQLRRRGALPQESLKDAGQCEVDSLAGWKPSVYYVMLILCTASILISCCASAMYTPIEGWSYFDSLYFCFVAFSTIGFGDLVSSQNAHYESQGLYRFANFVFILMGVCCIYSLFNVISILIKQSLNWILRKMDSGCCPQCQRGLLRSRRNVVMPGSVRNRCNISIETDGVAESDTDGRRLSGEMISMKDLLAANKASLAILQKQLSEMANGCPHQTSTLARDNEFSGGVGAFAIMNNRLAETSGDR
Test: KCNK13 antagonist activity, thallium (Tl+) flux FLIPR assay
Assay type: cell-based
Conditions: HEK 293 cells stably expressing human KCNK13; Tl+ sensitive dye, FLIPR; compounds 15 minutes prior to thallium sulfate; 10 point half log curves from 10 PM; read-out: hKCNK13 IC50
pIC50: −log10 of the molar value.
quantity_kind: pIC50

| compound | test_value |
| --- | --- |
| N#Cc1ccc(Cn2c(-c3nonc3N)nc3cccc(F)c32)nn1 (single isomer, unassigned) [Example 174] | > 7.00 |
| Cc1nsnc1-c1nc2ccc(F)cc2n1Cc1ccc(C#N)nc1 [Example 80] | > 6.00 |
| COc1ccc(Cn2c(-c3nonc3N)nc3cccnc32)cn1 [Example 14] | > 6.70 |
| N#Cc1ccc(Cn2c(-c3nonc3N)nc3c(F)cccc32)nn1 (single isomer, unassigned) [Example 175] | > 6.70 |
| Brc1nsnc1-c1nc2ccccc2n1Cc1cccnc1 [Example 126] | > 7.00 |
| CCOc1cccc2nc(-c3nonc3C)n(Cc3ccncc3)c12 [Example 70] | > 6.30 |
| CNc1ccc(Cn2c(-c3nonc3C)nc3ccccc32)cn1 [Example 73] | > 6.30 |
| Cc1nonc1-c1nc2c(F)cccc2n1Cc1ccc(S(C)(=O)=O)nc1 (single isomer, unassigned) [Example 138] | > 6.00 |
| Cc1nonc1-c1nc2ccccc2n1Cc1ccc(C#N)nc1 [Example 37] | > 7.30 |
| Nc1nonc1-c1nc2ccc(F)cc2n1Cc1ccncc1 [Example 91] | > 7.30 |
| Nc1nonc1-c1nc2c(F)c(F)ccc2n1Cc1cccnn1 (single isomer, unassigned) [Example 163] | > 6.70 |
| N#Cc1cnc(Cn2c(-c3nonc3N)nc3cccc(F)c32)cn1 [Example 35] | > 7.30 |
| Nc1nonc1-c1nc2c(F)cncc2n1Cc1cccnn1 (single isomer, unassigned) [Example 188] | > 5.30 |
| Cc1ocnc1-c1nc2ccccc2n1Cc1cccnc1 [Example 103] | > 6.70 |
| Cc1nonc1-c1nc2ccccc2n1Cc1ccc[n+]([O-])c1 [Example 76] | > 6.30 |
| Nc1nonc1-c1nc2c(F)cccc2n1Cc1ccc(Cl)nn1 (single isomer, unassigned) [Example 149] | > 7.00 |
| Cc1nonc1-c1nc2ccccc2n1Cc1ccccn1 [Example 79] | > 6.30 |
| Cc1nonc1-c1nc2cccnc2n1Cc1cnc(C#N)nc1 [Example 165] | > 7.00 |
